What pIC50 was measured for each of the following?
Biological target: His-tagged Human KRAS^G12D (Homo sapiens (Human), UniProt P01116, G12D)
Sequence (P01116-2 other isoform, or with tags, fused parts or gaps G12D): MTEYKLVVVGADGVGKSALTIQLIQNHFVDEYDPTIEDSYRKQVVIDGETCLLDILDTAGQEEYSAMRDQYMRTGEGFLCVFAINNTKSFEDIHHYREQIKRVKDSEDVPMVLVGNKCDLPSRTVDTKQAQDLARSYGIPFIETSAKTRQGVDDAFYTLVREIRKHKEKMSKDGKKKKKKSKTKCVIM
Test: HTRF KRAS G12D GTP binding assay
Settings: displacement of GTP-Red tracer
Hey, just a heads up that pIC50 is the negative log base 10 of the concentration in molar.

Please report pIC50 for the following compound: CCc1c(F)ccc2cc(O)cc(-c3ncc4c(N5C[C@H](O)C[C@H]5CO)nc(OC[C@@]56CCCN5C[C@H](F)C6)nc4c3F)c12
6.73

Please report pIC50 for the following compound: CCc1c(F)ccc2cc(O)cc(-c3ccc4c(N5CCC[C@]6(CCO6)C5)nc(OCC5(CN(C)C)CC5)nc4c3F)c12 [Compound 15a]
7.71

Please report pIC50 for the following compound: CCc1c(F)ccc2cc(O)cc(-c3ncc4c(N(C)CC(C)(C)O)nc(OCC5(CN(C)C)CC5)nc4c3F)c12 [Compound 32a]
6.32

Please report pIC50 for the following compound: CCc1c(F)ccc2cc(O)cc(-c3c(Cl)cc4c(N5CCCC6(CCO6)C5)nc(OC[C@@]56CCCN5C[C@H](F)C6)nc4c3F)c12 (stereo partly shown)
6.38

Please report pIC50 for the following compound: CCc1c(F)ccc2cc(O)cc(-c3ncc4c(N5CCC[C@]6(CCO6)C5)nc(OCC5(CN6CCC7(CC6)COC7)CC5)nc4c3F)c12 [Compound 18a]
8.35

Please report pIC50 for the following compound: CCc1c(F)ccc2cc(O)cc(-c3ncc4c(N5CCC6(CCOC6)C5)nc(OC[C@@]56CCCN5C[C@H](F)C6)nc4c3F)c12 (stereo partly shown)
6.12

Please report pIC50 for the following compound: CCc1c(F)ccc2cc(O)cc(-c3ncc4c(N5CCC[C@]6(CCO6)C5)nc(OCC5(CN6CCC7(CCC7)CC6)CC5)nc4c3F)c12 [Compound 23a]
7.51
